The origin of these recorded values is the RNAGym collection of RNA variant scans (doi:10.7554/elife.80360).

B1: CPEB3 Ribozyme (parent)
chain: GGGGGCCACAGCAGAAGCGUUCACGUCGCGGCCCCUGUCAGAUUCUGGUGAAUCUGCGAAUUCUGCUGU

Variants of: B1
method.summary: self-cleavage, relative activity (ratio to wild type); higher = more cleavage; co-transcriptional
Below, each of the variants is paired with its reported self-cleavage value.
observed.property: self-cleavage

>>> df
                               residue_codes  assay_result
 0  GGGGGCCACAGCAGAAGCGUUCACGUCGCGGACCCUGUCAGAUUCUGGUGAAGCUGCGAAUUCUGCUGU [C32A U53G]         0.419
 1  GGGGGGCACAGCAGAAGCGUUCACGUCGCGGCCCCUGUCAGAUUCUGGUGAAUCUGCGCAUUCUGCUGU [C6G A59C]          0.21
 2  GGGGGUCACAGCAGAAGCGUUCACGUCGCGGCCCCUGGCAGAUUCUGGUGAAUCUGCGAAUUCUGCUGU [C6U U38G]          0.12
 3  GGGGGCCACAGCAGAAGCGUUCACGUCGCGGCCCCUGUCAGAUUCUGGUGAAUCUGCGACUUGUGCUGU [A60C C63G]         0.344
 4  GGGGGCCACAGCAUAAGCGUUCACGUCGCGGCACCUGUCAGAUUCUGGUGAAUCUGCGAAUUCUGCUGU [G14U C33A]         0.522
 5  GGGGGCAACAGCAGAAACGUUCACGUCGCGGCCCCUGUCAGAUUCUGGUGAAUCUGCGAAUUCUGCUGU [C7A G17A]        0.0679
 6  GGGGGCCACAGCAGAAGCGUUCACGUCGCGGCCCCUGUCGGAUUUUGGUGAAUCUGCGAAUUCUGCUGU [A40G C45U]         0.933
 7  GCGGGCCACAGCAGAAGCGUUCACGUCGCGGACCCUGUCAGAUUCUGGUGAAUCUGCGAAUUCUGCUGU [G2C C32A]       0.00762
 8  GGGGGCCACAGCAGAAGCGUUCACGUCGCCGCCCCUGUCAGAUUCUCGUGAAUCUGCGAAUUCUGCUGU [G30C G47C]         0.696
 9  GGGGGCCACAGCAGAAGCGUUCACGUCGCGGCCCCUGUCAAAUUCUGGUGAAUCUGCGAAUACUGCUGU [G41A U62A]         0.474
10  GGGGGCCACAGCAGAAGCGUUCACGUCGCGGCCCCCGUCAGAUUCUGGUGAAUCUGCGACUUCUGCUGU [U36C A60C]         0.268
11  GGGGGCCACAGCAGAAGCGUUCACGUCGCGGCCCCUGUCAGAUUCUGGAGAAUGUGCGAAUUCUGCUGU [U49A C54G]         0.947
12  GGGGGCCACAGCAGAAGCGUUCACGUCGCGGCCCCUGUUAGACUCUGGUGAAUCUGCGAAUUCUGCUGU [C39U U43C]         0.687
13  GGGGGCCACAGCAGAAGCGUUCACGUCGCGGCCCCUGUCAGAUUCUGGUGAAUCUGCGAAUUCUGGUGA [C66G U69A]          1.02
14  GGGGGCCACAGCAGAAGCGUUCACGUCGCGGCCCCUGUCAGAUUCUGGUGAAUCAGCGUAUUCUGCUGU [U55A A59U]         0.456
15  GGGGGCCACAGCAGAAGCGUUCACGUCGCGACCCCUGUCAGAUUCUGGUGAAUAUGCGAAUUCUGCUGU [G31A C54A]         0.489
16  GGGGGCCACAGCAGAAGCGUUCACGUCGCGACCCCUGUCAGAUUCUGGUGAAUGUGCGAAUUCUGCUGU [G31A C54G]         0.436
17  GGGGGCCACAGCAGAAGCGUUCACUUCGCGGCCCCUGUCAGAUUCUGGUGAAUCUGCGAAUUCAGCUGU [G25U U64A]         0.132
18  GGGGGGCACAGCAGAAGCGUUCACGUCGCGGCCCCUGUCAGAUUCUGGUGAAUCUGCCAAUUCUGCUGU [C6G G58C]         0.294
19  GGGGGCCACAGCAGAAACGUUCACGUCGCGGCCCCUGUCAGAUUCUGGUGAAUCUGCGAAUGCUGCUGU [G17A U62G]         0.198
20  GGGGGGCAAAGCAGAAGCGUUCACGUCGCGGCCCCUGUCAGAUUCUGGUGAAUCUGCGAAUUCUGCUGU [C6G C9A]         0.651
21  GGGGGCCACAGCAGAAGCGUUCCCGUCGCGGCCCCUGUCAGAUUCUGGUAAAUCUGCGAAUUCUGCUGU [A23C G50A]         0.946
